Data provenance: paper PMC7819943

Target: OsWOX13 (Oryza sativa, UniProt Q5QMM3 1-267)
Sequence: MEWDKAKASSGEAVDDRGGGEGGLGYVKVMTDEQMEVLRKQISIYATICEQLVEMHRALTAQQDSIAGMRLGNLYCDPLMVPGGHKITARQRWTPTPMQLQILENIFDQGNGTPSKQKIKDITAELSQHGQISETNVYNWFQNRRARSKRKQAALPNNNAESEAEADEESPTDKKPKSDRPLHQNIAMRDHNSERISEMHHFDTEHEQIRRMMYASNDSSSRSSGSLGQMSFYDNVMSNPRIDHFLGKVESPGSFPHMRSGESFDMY
Assay: protein-binding microarray (RPBM); PBS, 2% BSA, 51.3 ng/ul salmon testes DNA, 50 uM zinc acetate, 200 nM TF, 25 C, 1 h; high values mean tight binding
Details: protein: recombinant; tags: N-terminal polyhistidine and DsRed monomer fusion (pET32a); label: CyDye5-dUTP incorporated in the synthesized complementary strand; 3' TTTTT single-stranded linker to array surface; dsDNA, one strand shown
In all, about 35,000 sequences were measured (“fluorescence intensity (a.u.)”: median about 10,000, highest 2% from about 52,000 on). Only a selection was taken, and the highest values are over-represented in it overall.
VALUE_TYPE: binding signal

Check out these entries, answers already filled in.
• GCTAATCATAGACTAATTAGACTCAAAAGATTAGTCTCGCCGGAGTCACCTAGTGCAG = 52800 fluorescence intensity (a.u.)
• ACAAAACAAATTACAGATTCCGCCTGCAAATTATGAGACACGGAGTCACCTAGTGCAG = 6510 fluorescence intensity (a.u.)
• TATTCAATAACTAAATTAATGCCTGATTTACGTTGTTCGTCGGAGTCACCTAGTGCAG = 17400 fluorescence intensity (a.u.)

Alright, here's another sequence for you.
Requested read-out binding signal, target or system OsWOX13 (Oryza sativa, UniProt Q5QMM3 1-267), entry `CTTAATTTAGAGTTGATTTTGGAGTTTCTTTTATCGTAGTCGGAGTCACCTAGTGCAG`
39500 fluorescence intensity (a.u.)

---

Biological target: OsWOX13 (Oryza sativa, UniProt Q5QMM3 1-267)
Sequence: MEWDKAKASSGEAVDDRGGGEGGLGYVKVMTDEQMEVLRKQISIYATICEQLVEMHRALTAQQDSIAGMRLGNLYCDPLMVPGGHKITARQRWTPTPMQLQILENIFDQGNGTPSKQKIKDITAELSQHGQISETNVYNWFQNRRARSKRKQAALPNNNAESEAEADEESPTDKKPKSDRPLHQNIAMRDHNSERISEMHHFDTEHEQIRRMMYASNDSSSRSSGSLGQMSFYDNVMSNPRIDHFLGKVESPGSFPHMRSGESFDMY
Experiment: protein-binding microarray (RPBM); PBS, 2% BSA, 51.3 ng/ul salmon testes DNA, 50 uM zinc acetate, 200 nM TF, 25 C, 1 h; high values mean tight binding
Details: protein: recombinant; tags: N-terminal polyhistidine and DsRed monomer fusion (pET32a); label: CyDye5-dUTP incorporated in the synthesized complementary strand; 3' TTTTT single-stranded linker to array surface; dsDNA, one strand shown
In all, about 35,000 sequences were measured (“fluorescence intensity (a.u.)”: median about 10,000, highest 2% from about 52,000 on). The list comes from a sample in which the highest values are over-represented; it also holds close analogues and randomly drawn sequences.
Measured binding signal, listed per entry for reference.

Which binding signal value belongs to `TCTAATTACTTATTAATTAATTGATTTAATTAAATTAATCCGGAGTCACCTAGTGCAG` ?
40400 fluorescence intensity (a.u.)

Which binding signal value belongs to `ATCAATCACTACTGCATATTACTATAATCTCCTCTATACTCGGAGTCACCTAGTGCAG` ?
5200 fluorescence intensity (a.u.)

Which binding signal value belongs to `CCGCACCTAAATTGATTGATTATTAATTTAACTGCCGCTCCGGAGTCACCTAGTGCAG` ?
65500 fluorescence intensity (a.u.)

Which binding signal value belongs to `TATTAAGTCTAATTAATCCATGATTAGCCTATGTGATGCTCGGAGTCACCTAGTGCAG` ?
15300 fluorescence intensity (a.u.)

Which binding signal value belongs to `CAGGTGCTCTAACTACTATGTAATTGAACCACTGACATGTCGGAGTCACCTAGTGCAG` ?
5510 fluorescence intensity (a.u.)

Which binding signal value belongs to `AAAATAACTAATTGCACAGATTGTGACTAATTTGCGAGACCGGAGTCACCTAGTGCAG` ?
34900 fluorescence intensity (a.u.)

Which binding signal value belongs to `AACTAATTAATTTATTGGCAGGCACTGGCCTACCAAACCTCGGAGTCACCTAGTGCAG` ?
53100 fluorescence intensity (a.u.)

Which binding signal value belongs to `TGCGAAATTTAGCGTGAGAAATTAAGTGATTGATTGAGAGCGGAGTCACCTAGTGCAG` ?
26900 fluorescence intensity (a.u.)

Which binding signal value belongs to `AATAACTAATTGTACATATTACGACTAATTTGCGAGATGACGGAGTCACCTAGTGCAG` ?
35000 fluorescence intensity (a.u.)

Which binding signal value belongs to `TACACCTTTGACAGACAACAAAGCATTGAATCTTCTATGCCGGAGTCACCTAGTGCAG` ?
5260 fluorescence intensity (a.u.)

Which binding signal value belongs to `AATAACTAATTGCATAGATTGTGACTAATTTGCGATGCGACGGAGTCACCTAGTGCAG` ?
55200 fluorescence intensity (a.u.)

Which binding signal value belongs to `ACCAAACGCCTTGATTGAAACCATCGATATACATATGTAACGGAGTCACCTAGTGCAG` ?
34900 fluorescence intensity (a.u.)
